- target entity: HLA-C*08:02
- measurement description: IEDB peptide-MHC binding, purified MHC/direct/fluorescence; filed as Kd, often an IC50 or EC50 that approximates it; bounds were set here for any values at or beyond the usual limits of such assays
- protocol conditions: source organism: Francisella tularensis subsp. tularensis FSC198
endpoint label: pKd
In simple prose, pKd is minus the logarithm base ten of a concentration in moles per litre.

Note pKd for the sequence shown: `YMYQYIQEL`
6.13

----------
- target entity: HLA-A*01:01
- measurement description: IEDB peptide-MHC binding, purified MHC/competitive/fluorescence; bounds were set here for any values at or beyond the usual limits of such assays
- protocol conditions: source organism: Homo sapiens
endpoint label: IC50

Tell me its IC50 given `SYMMDDLELI` as the entry.
≥ 20 µM
